target: sigma-1 receptor (sig1R) (Homo sapiens); construct: U87-MG cells; assay: radioligand binding and displacement of (+)-[3H]pentazocine in U87-MG cells; autoradiography of tumour
Sequence (Q99720 whole entry): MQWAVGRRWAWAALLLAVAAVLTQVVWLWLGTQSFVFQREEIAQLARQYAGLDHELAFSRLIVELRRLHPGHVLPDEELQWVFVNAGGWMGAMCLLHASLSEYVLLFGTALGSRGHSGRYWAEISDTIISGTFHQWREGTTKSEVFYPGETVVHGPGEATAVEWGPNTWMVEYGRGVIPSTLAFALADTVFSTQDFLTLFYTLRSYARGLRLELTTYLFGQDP
quantity kind: pKd
Give bare numbers, as −log10 of the molar value.

Query: Reported pKd, molecule FCC[C@@H]1OC2(CCN(Cc3ccccc3)CC2)c2ccccc21 [(S)-(−)-[^18F]fluspidine] : ____
Response: 7.78

----------
target: sigma-1 receptor (sig1R) (Mus musculus, UniProt O55242)
Sequence (O55242 whole entry): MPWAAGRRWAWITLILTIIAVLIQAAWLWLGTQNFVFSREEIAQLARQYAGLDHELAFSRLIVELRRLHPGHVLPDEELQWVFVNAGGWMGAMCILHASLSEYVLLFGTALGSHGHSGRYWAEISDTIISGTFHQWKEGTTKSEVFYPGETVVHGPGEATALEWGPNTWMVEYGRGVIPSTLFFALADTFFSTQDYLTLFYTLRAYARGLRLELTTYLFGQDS
quantity kind: pKd
Answers are plain numbers, as −log10 of the molar value.

Query: Form field - read-out: pKd; system: sigma-1 receptor (sig1R) (Mus musculus, UniProt O55242); submitted item: FCC[C@@H]1OC2(CCN(Cc3ccccc3)CC2)c2ccccc21 [(S)-(−)-[^18F]fluspidine]
Response: 7.77
